- assay_target: Sphingosine 1-phosphate receptor 1 (Homo sapiens) (UniProt P21453)
- Sequence (P21453 whole entry, looked up): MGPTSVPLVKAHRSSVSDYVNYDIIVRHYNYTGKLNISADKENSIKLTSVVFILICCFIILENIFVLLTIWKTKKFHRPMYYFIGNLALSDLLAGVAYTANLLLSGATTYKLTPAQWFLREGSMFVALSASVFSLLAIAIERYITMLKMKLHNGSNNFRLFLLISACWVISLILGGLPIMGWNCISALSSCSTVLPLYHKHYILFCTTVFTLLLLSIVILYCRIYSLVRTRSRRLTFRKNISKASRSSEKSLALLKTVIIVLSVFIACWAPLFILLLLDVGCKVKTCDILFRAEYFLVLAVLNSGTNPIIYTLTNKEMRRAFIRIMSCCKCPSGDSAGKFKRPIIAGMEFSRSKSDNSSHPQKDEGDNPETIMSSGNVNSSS
- method_description: S1P1 agonism potentiation – cell-based, potentiator mode, 60K MLSMR set, dose response (AID 466)
- assay_context: S1P1 cell assay, potentiation of agonist response
Activity calls are given as the source filed them. No rule for the calls is given here.
Use one of these outcomes when replying: yes (1) for active, no (0) for inactive

Sample answers from the record:
FC(F)(F)c1ccc(N2CCN(c3cc(-c4ccccc4)nc4ncnn34)CC2)nc1 | no (0)
CC(C)Cn1c(N)c(C(=O)CSc2ccc3c(c2)OCCO3)c(=O)n(C)c1=O | no (0)
CCC(=NC(C)c1ccccc1)c1c(O)n(C)c(=O)n(C)c1=O (stereo not given) | no (0)

Which outcome did this test record for the compound CCC(=NCCOc1ccc(Cl)cc1)c1c(O)n(C)c(=O)n(C)c1=O ?
yes (1)

Recorded test call requested for CCC(=NCc1ccc2c(c1)OCO2)c1c(O)n(C2CCCCC2)c(=O)[nH]c1=O
yes (1)
